target: SARS-COV-2 RBD-MMH (SARS-CoV-2); assay: SPR 37C, run with dissociation at pH 5.0
Label Yes when RBD.mmh Bound at pH 7.4 (RU) is strictly below 100 RU; otherwise label No.

Example results:
{"columns": ["binder", "class.label"],
 "data": [
  ["mAb15150 (antibody, V domains shown) VH: EVQLVETGGGLIQPGGSLRLSCAAPGFIVSSNYMSWVRQAPGKGLEWVSLLYPGGSTYYADSVKGRFTISRDNSKNTLYLQMNSLRADDTAVYYCARVLPIVEDHFDYWGQGTLVTVSS VL: DIQLTQSPSFLSASVGDRVTITCRASQGMSSYLAWYQKKPGKAPKLLIYGATILQSGVPSRFSGSGSGTEFTLTISSLQPEDFATYYCQQLNSDPLYMYTFGQGTKLEIKR", "Yes"],
  ["mAb15151 (antibody, V domains shown) VH: QVQLVESGGGVVQPGRSLRLSCAASGFVFNSYGMHWVRQAPGKGLEWVAVLWYEGSKNYYADSVKGRFTISRDNSKNTLYLQMNSLRAEDTAVYYCARHGSGSFFGYYLDYWGQGTLVTVSS VL: DIQMTQSPSSLSASVGDRVTITCRASHNINDFLNWYQQKPGKAPRLLIYAASSLQSGVPSRFSGSGSGTDFTLTISSLQPEDFATYYCQESYTTPPTFGQGTKLEIKR", "No"],
  ["mAb15157 (antibody, V domains shown) VH: EVQLVESGGALVQPGGSLRLSCAASGFPFTIYAMTWVRQAPGKGLEWVSVITGSGDSTYYADSVKGRFTISRDNSKNTLYLQMNSLRAEDTAVYYCVKTGEGFFYYYYGMDVWGQGTTVTVSS VL: QSVLTQPPSVSAAPGQKVTISCSGSSSNIGNSYISWYQQLPGTAPKLLIYVNNKRPSGIPDRFSGSKSGTSATLGITGLQTGDEADYYCGTWDSSLSAGVFGSGTKVTVLG", "No"],
  ["mAb15170 (antibody, V domains shown) VH: EVQLVESGGGLVQPGGSLRLSCAATGITVSSNYMSWVRQAPGKGLEWVSLIYSGGSTFYADSVKGRFTISRHNSKNTLYLQMSSLRAEDTAVYYCARDLVDFGMDVWGQGTTVTVSS VL: DIQLTQSPSSLSASVGDRVTITCRASQGISNYLAWYQQKPGKAPKLLIYAASTLQSGVPSRFSGSGSGTDFTLTISSLQPEDFGTYYCQQLNSDSPTFGQGTKVEIKR", "No"],
  ["mAb15164 (antibody, V domains shown) VH: EVQLVESGGGLVQPGGSLRLSCAASGFAVSSNYMTWVRQAPGKGLEWVATIYSGDSTYYADSVKGRFTISRHNSKNTLSLQMNSLRADDTAIYYCARLSGVLSGTYNGAFDIWGQGTMVTVSS VL: QSALTQPASVSGSPGQSITISCTGTSSDFGNYNIVSWYQQHPGQAPKVMIYEGNKRPSGVSNRFSGSKSGHTASLTISGLQAEDEADYYCSSYAGSSTWVFGGGTKLTVLG", "No"],
  ["mAb15159 (antibody, V domains shown) VH: EVQLVESGGGLVQPGGSLRLSCAASGITVSSNYMTWVRQAPGKGLEWVSLIYSGGSTFYADSVRGRFTISRDNSKNTLYLQMNSLRAEDTAVYYCARDLVVYGMDVWGQGTTVTVSS VL: DIQLTQSPSSLSASVGDRVTITCRASQGISSYLAWYQQKPGKAPKLLIYAASTLQSGVPSRFSGSGSGTDFTLTISSLQPEDFATYYCQHLNSDPHTFGQGTKLEIKR", "Yes"]
]}

Next item in the queue.
Query: Given the entry mAb15163 (antibody, V domains shown) VH: EVQLVETGGGLIQPGESLRLSCAASGFIVSTNYMNWVRQAPGKGLEWVSVIYRGGSTYYADSVKGRFTISRDNSKNTLFLQMNSLRAEDTAVYYCARGHEDFDYDTPASGAFDIWGQGTMVTVSS VL: QSALTQPPSASGSPGQSVTISCTGTSSDVGGHNYVSWYQQHPGKAPKVMIYEVSKRPSGVPDRFSGSKSGNTASLTVSGLQAEDEADYYCSSYAGSNKFVFGTGTKVTVLG , would its reported RBD.mmh Bound at pH 7.4 (RU) be below 100 RU?
Response: Yes
